Test system: ATP;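 further: ATP exposure 15 min at 22 °C before imaging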
protocol.description: switch fluorescence ratio, 500 uM ATP over buffer (Cy3 cluster intensity, sum of 5 cycles each) (fold (ratio)); higher = stronger signal-on switching upon ATP binding; sequences stand for … in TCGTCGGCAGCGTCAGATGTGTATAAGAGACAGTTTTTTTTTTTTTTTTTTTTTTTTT…TC
condition.details: aptamer strand: ATP DNA aptamer (quencher-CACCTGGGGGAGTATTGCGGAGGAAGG + anchor), 100 nM annealed; ATP concentration: 500 uM
quantity: switch fluorescence ratio
Returns: the value as a bare number; no unit string appended.

Example cases with answers are listed next.
- chain: "AGCGAGGGAG"
  switch fluorescence ratio: 1.01
- chain: "ACAACGCGT"
  switch fluorescence ratio: 0.982
- chain: "AGGCTTACTC"
  switch fluorescence ratio: 1.39
- chain: "GTGGGTTCAG"
  switch fluorescence ratio: 1

I have this sequence here, ACCTCGTTTT , and I need its recorded switch fluorescence ratio. 0.988

Could you share which switch fluorescence ratio value was measured for AGTACGGAAG ? 1.02

Need switch fluorescence ratio, item CGTGTTCGCT 0.992

Consider the sequence shown here: GGATGGTAGC What is its recorded switch fluorescence ratio? 1.01

Which switch fluorescence ratio is reported for this sequence? CGTCGTAAAA 0.999

###

Entries annotated with measured switch fluorescence ratio
Test system: ATP;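 further: ATP exposure 15 min at 22 °C before imaging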
protocol.description: switch fluorescence ratio, 500 uM ATP over buffer (Cy3 cluster intensity, sum of 5 cycles each) (fold (ratio)); higher = stronger signal-on switching upon ATP binding; sequences stand for … in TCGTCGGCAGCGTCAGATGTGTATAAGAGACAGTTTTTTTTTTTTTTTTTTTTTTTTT…TC
condition.details: aptamer strand: ATP DNA aptamer (quencher-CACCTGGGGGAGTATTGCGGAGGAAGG + anchor), 100 nM annealed; ATP concentration: 500 uM
Answer using only a numeral; do not append any unit.

Solved cases (2 shown):
- chain: "AGAATAGAGT"
  switch fluorescence ratio: 0.97
- chain: "GATGATGGGA"
  switch fluorescence ratio: 0.979

Look up switch fluorescence ratio: TTAGAAAAGA 1

So what does the record say about switch fluorescence ratio for CGGAACAGTT ? 1.02

What does the data say about its switch fluorescence ratio? Entry: AAGGTCGCGG 1

Using the record for AGTGTGCGGT , report its switch fluorescence ratio. 0.949

What does the data say about its switch fluorescence ratio? Entry: CACGGTTGTT 1.01

###

Test system: ATP;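 further: ATP exposure 15 min at 22 °C before imaging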
protocol.description: switch fluorescence ratio, 500 uM ATP over buffer (Cy3 cluster intensity, sum of 5 cycles each) (fold (ratio)); higher = stronger signal-on switching upon ATP binding; sequences stand for … in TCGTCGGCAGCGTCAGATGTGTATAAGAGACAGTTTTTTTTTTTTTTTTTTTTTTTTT…TC
condition.details: aptamer strand: ATP DNA aptamer (quencher-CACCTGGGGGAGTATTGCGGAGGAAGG + anchor), 100 nM annealed; ATP concentration: 500 uM
The following sequences are listed with their measured switch fluorescence ratio values.
No unit in the answer, only the number.

// worked examples, switch fluorescence ratio included
- chain: "AGGGCTCGTT"
  switch fluorescence ratio: 0.98
- chain: "GGGCAGGGGA"
  switch fluorescence ratio: 1.17
- chain: "ATATATGCCG"
  switch fluorescence ratio: 0.985
- chain: "CATTGGTTTG"
  switch fluorescence ratio: 1.01
- chain: "TATATGGTGG"
  switch fluorescence ratio: 1.02
- chain: "TAAAAAGGAA"
  switch fluorescence ratio: 0.964

We next turn to a different sequence, shown below.
Which switch fluorescence ratio value is on record for TGGGCCGCTT ? 1.04

###

Catalogue of switch fluorescence ratio values
Tested on: ATP;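 further: ATP exposure 15 min at 22 °C before imaging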
protocol.description: switch fluorescence ratio, 500 uM ATP over buffer (Cy3 cluster intensity, sum of 5 cycles each) (fold (ratio)); higher = stronger signal-on switching upon ATP binding; sequences stand for … in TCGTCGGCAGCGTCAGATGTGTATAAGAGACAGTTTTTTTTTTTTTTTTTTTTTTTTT…TC
condition.details: aptamer strand: ATP DNA aptamer (quencher-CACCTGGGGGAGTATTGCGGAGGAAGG + anchor), 100 nM annealed; ATP concentration: 500 uM
Format: numeric value only, no unit, no commentary.

Completed entries (count: 4):
- chain: "TATTGAAAAA"
  switch fluorescence ratio: 1.06
- chain: "AGGCAATGTT"
  switch fluorescence ratio: 1.05
- chain: "TCGGTGAATT"
  switch fluorescence ratio: 1.01
- chain: "GGATGCTTGT"
  switch fluorescence ratio: 1.01

Any idea what switch fluorescence ratio was measured for GTACGTAGGC ? 1.03

Which measured switch fluorescence ratio value corresponds to CGACGAGTAA ? 1.32

What measured switch fluorescence ratio goes with TTTAGGGGCG ? 1.03

Quick check: switch fluorescence ratio of GAGGAGGGAG ? 0.998

// returns reported switch fluorescence ratio for input AGCGCAAAAT 1.02

###

In this section, each of the sequences is paired with its reported switch fluorescence ratio.
Test system: ATP;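 further: ATP exposure 15 min at 22 °C before imaging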
protocol.description: switch fluorescence ratio, 500 uM ATP over buffer (Cy3 cluster intensity, sum of 5 cycles each) (fold (ratio)); higher = stronger signal-on switching upon ATP binding; sequences stand for … in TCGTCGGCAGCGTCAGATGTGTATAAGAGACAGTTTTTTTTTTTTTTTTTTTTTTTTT…TC
condition.details: aptamer strand: ATP DNA aptamer (quencher-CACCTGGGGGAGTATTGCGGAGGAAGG + anchor), 100 nM annealed; ATP concentration: 500 uM
Enter the number alone.

- chain: "GAGGGTGCAT"
  test.target: "ATP"
  measured.number: 0.987
- chain: "CAACGGGTGC"
  test.target: "ATP"
  measured.number: 1.75

Recall the recorded switch fluorescence ratio for CGTCACTAGC with ATP and state it. 1.04

What switch fluorescence ratio appears in the records for this sequence with ATP? GGGAGAGCGT 0.966

// map CATGTAATTT to recorded switch fluorescence ratio (system: ATP) 0.966

Form: Entry = CTGACTCCTT | System = ATP | switch fluorescence ratio = ____ 1.52

Give the reported switch fluorescence ratio for CGAGGATGT (system: ATP). 1.01

For ATP, provide switch fluorescence ratio of GGGAATCGGT please. 0.978

Reported switch fluorescence ratio for ATP, given ATTTTTTCCT ? 1.03

Query for ATP: what switch fluorescence ratio does the record show for GGATAGTGTG ? 0.997

Query switch fluorescence ratio on ATP for GGGTCGGGGC 1.02

Lab request: please report switch fluorescence ratio under test system ATP for TTCGGGCTGT 0.996

Report switch fluorescence ratio for GAATAATGGG tested on ATP. 1.01

Form: Entry = GTTAGTATAA | System = ATP | switch fluorescence ratio = ____ 0.989

Please tell me: switch fluorescence ratio of GTTTACTCGT , system ATP? 1.02

switch fluorescence ratio of AGACGGAATT on ATP? 1.05

Value wanted: switch fluorescence ratio (ATP) of entry TAAGTGGGGG 0.979

Report switch fluorescence ratio for GAGTGCAATT tested on ATP. 1.19

Give recorded switch fluorescence ratio with ATP for the following sequence: AAAGTGTTTG 1.02

###

System: ATP;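 further: ATP exposure 15 min at 22 °C before imaging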
protocol.description: switch fluorescence ratio, 500 uM ATP over buffer (Cy3 cluster intensity, sum of 5 cycles each) (fold (ratio)); higher = stronger signal-on switching upon ATP binding; sequences stand for … in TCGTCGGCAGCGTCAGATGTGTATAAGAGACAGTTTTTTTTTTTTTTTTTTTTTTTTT…TC
condition.details: aptamer strand: ATP DNA aptamer (quencher-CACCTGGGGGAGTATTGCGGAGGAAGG + anchor), 100 nM annealed; ATP concentration: 500 uM
quantity: switch fluorescence ratio
# answer = number (no unit)

Solved entries:
- chain: "ATCGGTATCC"
  test.target: "ATP"
  measured.number: 1.04
- chain: "CGGTGTTGTT"
  test.target: "ATP"
  measured.number: 1.02
- chain: "TCTGGAATAA"
  test.target: "ATP"
  measured.number: 1.66
- chain: "GGATAAACGG"
  test.target: "ATP"
  measured.number: 1.03
- chain: "GGTCCGTCGA"
  test.target: "ATP"
  measured.number: 1.02

// map TTTAGCTTGT to recorded switch fluorescence ratio (system: ATP) 0.972

I'm curious: which switch fluorescence ratio was measured for TTTCGAGGGA tested on ATP? 1

For ATP, provide switch fluorescence ratio of AGGAGGGGAT please. 1.02

Which switch fluorescence ratio is reported with ATP for this entry: TAGGCCTTAC ? 1.43

Give the reported switch fluorescence ratio for GGCAGGGTTT (system: ATP). 0.99

###

Test system: ATP;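 further: ATP exposure 15 min at 22 °C before imaging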
protocol.description: switch fluorescence ratio, 500 uM ATP over buffer (Cy3 cluster intensity, sum of 5 cycles each) (fold (ratio)); higher = stronger signal-on switching upon ATP binding; sequences stand for … in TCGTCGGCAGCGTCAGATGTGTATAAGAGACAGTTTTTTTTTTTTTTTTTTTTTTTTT…TC
condition.details: aptamer strand: ATP DNA aptamer (quencher-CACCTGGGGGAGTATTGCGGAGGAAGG + anchor), 100 nM annealed; ATP concentration: 500 uM
Below: a set of entries, each annotated with reported switch fluorescence ratio.
// print number alone

Examples with their reported switch fluorescence ratio follow.
- chain: "CAAAAGTCTT"
  quantity: "switch fluorescence ratio"
  measured.number: 1.02
- chain: "CTGTGGTGGG"
  quantity: "switch fluorescence ratio"
  measured.number: 0.996
- chain: "TACGTTGCAT"
  quantity: "switch fluorescence ratio"
  measured.number: 1.05
- chain: "TTTTAATTTT"
  quantity: "switch fluorescence ratio"
  measured.number: 0.998
- chain: "AGTTGGAGGA"
  quantity: "switch fluorescence ratio"
  measured.number: 0.991

Consider the sequence shown here: GATCCCGCGG What is its recorded switch fluorescence ratio? 1.05

Can you share its switch fluorescence ratio? I mean this sequence: AGGGCTGCTA 0.996

Given the sequence CGGTGCTGCG , what is its reported switch fluorescence ratio? 1.07

Entry under review: AGGGTAGATT . Reported switch fluorescence ratio? 0.977

Need switch fluorescence ratio, item TTTTCACGCA 1.57
